Hey, just so you know, these numbers are from patent US20210230599.

- assay-target: Interleukin-8 (IL8, CXCL8), C-terminal His-tagged (Homo sapiens, UniProt P10145 SEQ:1-72)
- Sequence (P10145 28-99): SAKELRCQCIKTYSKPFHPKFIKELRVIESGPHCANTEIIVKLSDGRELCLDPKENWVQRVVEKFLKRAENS
- protocol: TR-FRET; bead flow 10 nM
- recorded-conditions: tags: C-terminal 6xHis (Sino Biological); label: Alexa Fluor 647
experimental-endpoint: Kd (nM)

> print(dat)
                                     binder  reported.value
1  UUAAGCGCUGAGACGAGAGAUUAAUGCCGCUUGCCU (ssRNA, 2'-F G, 2'-OMe A/C/U, 5' C6NH2, 3' idT) [Aptamer 21]               7
